List of pIC50 values.
Target: PyasOBP2
Test: Fluorescence competitive binding assay with 1-NPN as probe
Conditions: PyasOBP2 2 μM, 1-NPN 2 μM, ligand 0 to 20 μM, three replicates
API: returns pIC50 as number; meaning -log10 of concentration in mol/L.

Example cases with answers are listed next.
Molecule: CCC/C=C/CO [trans-2-Hexen-1-ol]
System Under Test: PyasOBP2
pIC50: 5.05
--
Molecule: CCC/C=C/C=O [trans-2-Hexen-1-al]
System Under Test: PyasOBP2
pIC50: 4.80
--
Molecule: CC1=CCC2CC1C2(C)C (stereo not shown)
System Under Test: PyasOBP2
pIC50: 4.97
--
Molecule: CC(C)C=O
System Under Test: PyasOBP2
pIC50: 4.89
--
Molecule: CCCC(=O)OCC [Ethyl butyrate]
System Under Test: PyasOBP2
pIC50: 5.45

Please look at the following molecule next.
Which measured pIC50 value corresponds to "OCc1ccccc1" ?
4.79

Hey, just so you know, these numbers are from paper PMC9091336.
